tested on: HepG2 cells; assay: cells; details: Homo sapiens, HepG2, read-out: MMP assays IC50 (µM) HepG2
endpoint-name: log10 IC50 (log10 of the value in µM)
In plain terms, each number is the log10 of measured IC50 in µM.

Illustrative cases are given below, each with its answer.
molecule: C#C[C@]1(O)CC[C@H]2[C@@H]3CCC4=CC(=NO)CC[C@@H]4[C@H]3CC[C@@]21CC (mixture of isomers) [Norelgestromin]
reported-result: 1.29

molecule: CCC[C@@]1(CCc2ccccc2)CC(O)=C([C@H](CC)c2cccc(NS(=O)(=O)c3ccc(C(F)(F)F)cn3)c2)C(=O)O1 [Tipranavir]
reported-result: 1.24

molecule: O=[N+]([O-])c1ccc2c3c(cccc13)CC2 [Compound 5-Nitroacenaphthene]
reported-result: 1.75

molecule: CSC1=N[C@@](C)(c2ccccc2)C(=O)N1Nc1ccccc1 [Fenamidone]
reported-result: 1.30

Input Clc1ccc(C(c2ccc(Cl)cc2)C(Cl)(Cl)Cl)cc1 [p,p'-DDT] , output reported log10 IC50. 1.49

Input CCC(=O)OCC(=O)[C@@]1(OC(=O)CC)[C@@H](C)C[C@H]2[C@@H]3CCC4=CC(=O)C=C[C@]4(C)[C@@]3(F)[C@@H](O)C[C@@]21C [Betamethasone dipropionate] , output reported log10 IC50. 1.29

Input CCCCCCCCCCCCc1ccc(O)cc1 [Compound 4-Dodecylphenol] , output reported log10 IC50. 0.70

====

test system: Caenorhabditis elegans (Bristol N2); assay: C. elegans larval development and growth assay; conditions: 0.5–100μM
endpoint-name: effect on larval growth (in words)

molecule: O=C(Nc1ccc(Cl)cc1)Nc1ccc(Cl)c(Cl)c1 [Triclocarban]
target-system: Caenorhabditis elegans (Bristol N2)
endpoint-name: effect on larval growth (in words)
reported-result: inhibited
//
molecule: CO/C=C(/C(=O)OC)c1ccccc1COc1cccc(C(F)(F)F)n1 [Picoxystrobin]
target-system: Caenorhabditis elegans (Bristol N2)
endpoint-name: effect on larval growth (in words)
reported-result: inhibited

====

tested on: rat primary hepatocytes; experiment: MMP assay in rat primary hepatocytes; settings: rat hepatocytes; mean ± SD of three experiments
The reader will find reported MMP assays efficacy (%) Rat Hepatocytes values listed item by item below.
Write the answer as a number in %, unit excluded.

Illustrative cases are given below, each with its answer.
molecule: CC[C@H](NC(=O)c1cc(F)ccc1[N-]S(=O)(=O)c1cccc2cccnc12)c1ccccc1.[Na+]
MMP assays efficacy (%) Rat Hepatocytes: -84
//
molecule: O=C(c1ccccc1)c1ccc(O)cc1 [Compound 4-Hydroxybenzophenone]
MMP assays efficacy (%) Rat Hepatocytes: -82

We now examine a further molecule.
Input O=C(O)C(=O)Cc1c[nH]c2ccccc12 , output reported MMP assays efficacy (%) Rat Hepatocytes. -72

====

tested on: HepG2 cells; conditions: HepG2 cells; single number from one experiment
endpoint-name: MMP assays efficacy (%) HepG2
Write the answer as a number in %, unit excluded.

Illustrative cases are given below, each with its answer.
compound: Cc1ccc2oc(CN(Cc3ccccc3)C(=O)Nc3c(F)cc(F)cc3F)c(-c3ccc(Cl)cc3)c2c1
MMP assays efficacy (%) HepG2: -66
--
compound: CCOC(=O)c1ccccc1C(=C1C=C(Br)C(=O)C(Br)=C1)c1cc(Br)c(O)c(Br)c1 [Tetrabromophenolphthalein ethyl ester]
MMP assays efficacy (%) HepG2: -129

We now examine a further compound.
Quote MMP assays efficacy (%) HepG2 with test system HepG2 cells for O=C1c2ccccc2C(=O)C1c1ccc2ccccc2n1 [D&C Yellow 11] -75

====

The reader will find reported IC50 values listed item by item below.
test system: rat primary hepatocytes; assay: MMP assay in rat primary hepatocytes; details: Rattus norvegicus, Hepatocyte, read-out: MMP assays IC50 (µM) Rat Hepatocytes
Counter-ions that a name gives are not always drawn.
Write the answer as a number in µM, unit excluded.

Illustrative cases are given below, each with its answer.
molecule: COC(=O)N(C(=O)N1CO[C@@]2(C(=O)OC)Cc3cc(Cl)ccc3C2=N1)c1ccc(OC(F)(F)F)cc1
target-system: rat primary hepatocytes
endpoint-name: IC50
units: µM
reported-result: 34.4
//
molecule: O=S(=O)(c1ccc(Cl)cc1)c1cc(Cl)c(Cl)cc1Cl
target-system: rat primary hepatocytes
endpoint-name: IC50
units: µM
reported-result: 12.1
//
molecule: Cc1c(O)cccc1C(=O)N[C@@H](CSc1ccccc1)[C@H](O)CN1C[C@H]2CCCC[C@H]2C[C@H]1C(=O)NC(C)(C)C [Nelfinavir mesylate]
target-system: rat primary hepatocytes
endpoint-name: IC50
units: µM
reported-result: 8.68
//
molecule: O=C1C2(Cl)C3(Cl)C4(Cl)C(Cl)(Cl)C5(Cl)C3(Cl)C1(Cl)C5(Cl)C24Cl (centres unmarked)
target-system: rat primary hepatocytes
endpoint-name: IC50
units: µM
reported-result: 10.2

Input CCCCCCCCCCCCc1ccc(O)cc1 , output reported IC50. 25.1

Input CCc1ccc(CCOc2ccc(CC3SC(=O)NC3=O)cc2)nc1 (centres unmarked) [Pioglitazone hydrochloride] , output reported IC50. 8.9

Input CCCN(CCC)c1c([N+](=O)[O-])cc(C(F)(F)F)cc1[N+](=O)[O-] , output reported IC50. 32.6

Input Nc1ccc(O)c([N+](=O)[O-])c1 , output reported IC50. 33.5

====

tested on: Caenorhabditis elegans strain PE255; conditions: PE255 [sur-5::luc+::gfp; rol-6(su1006)], Caenorhabditis elegans, in vivo
The reader will find reported LEC (lowest effect concentration), ATP assay values listed item by item below.

Illustrative cases are given below, each with its answer.
molecule: Nc1ccc(N)c2c1C(=O)c1ccccc1C2=O
reported-result: ≤ 10 µM
--
molecule: O=C1c2ccccc2C(=O)C1C(=O)C(c1ccccc1)c1ccc(Cl)cc1 (stereo not shown)
reported-result: < 10 µM
--
molecule: O=C1c2c(O)ccc([N+](=O)[O-])c2C(=O)c2c([N+](=O)[O-])ccc(O)c21 [1,8-Dihydroxy-4,5-dinitroanthraquinone]
reported-result: ≤ 10 µM

We now examine a further molecule.
Quote LEC (lowest effect concentration), ATP assay with test system Caenorhabditis elegans strain PE255 for CC(C)(C)c1cc([N+](=O)[O-])cc([N+](=O)[O-])c1O < 10 µM

====

The next entries give measured MMP assays efficacy (%) Rat Hepatocytes for rat primary hepatocytes.
Write the answer as a number in %, unit excluded.

Quote MMP assays efficacy (%) Rat Hepatocytes with test system rat primary hepatocytes for Oc1ccc(C(c2ccc(O)cc2)C(Cl)(Cl)Cl)cc1 -89

Quote MMP assays efficacy (%) Rat Hepatocytes with test system rat primary hepatocytes for C[C@]12CC[C@H]3C(=CCc4cc(O)ccc43)[C@@H]1CCC2=O -47

Quote MMP assays efficacy (%) Rat Hepatocytes with test system rat primary hepatocytes for O=[N+]([O-])c1ccc(F)c([N+](=O)[O-])c1 -68

====

system: isolated rat liver mitochondria; test: Oxygen consumption, Clark-type oxygen electrode; type: biochemical; conditions: 20 µM
endpoint-name: I-ADP, % of control (O2 consumption rate)

molecule: O=C(Nc1ccc([N+](=O)[O-])cc1Cl)c1cc(Cl)ccc1O [Niclosamide, reference compound]
reported-result: 79 (28.1) % of control

Input N#CC(C#N)=NNc1ccc(OC(F)(F)F)cc1 [FCCP, reference compound] , output reported I-ADP, % of control (O2 consumption rate). 73 (36.0) % of control

Input CC[C@@H](C(=O)[C@@H](C)[C@@H](O)[C@H](C)CCc1ccc(C)c(O)c1C(=O)O)[C@H]1O[C@](CC)([C@H]2CC[C@](O)(CC)[C@H](C)O2)C[C@@H]1C [Lasalocid sodium, reference compound] , output reported I-ADP, % of control (O2 consumption rate). 107 (34.7) % of control

====

system: rat primary hepatocytes; assay: MMP assay in rat primary hepatocytes; conditions: % of positive control; mean±SD of three experiments
endpoint-name: Rat hepatocytes (efficacy) (MMP) (%)
Write the answer as a number in %, unit excluded.

molecule: NNc1nc(-c2ccc(N)cc2)cs1 [2-Hydrazino-4-(4-aminophenyl) thiazole]
target-system: rat primary hepatocytes
units: %
Rat hepatocytes (efficacy) (MMP): −50.5
--
molecule: NNc1nc(-c2ccccc2)cs1 [2-Hydrazino-4-phenylthiazole]
target-system: rat primary hepatocytes
units: %
Rat hepatocytes (efficacy) (MMP): −57.1
--
molecule: CCc1cc(Cc2cc(CC)cc(C(C)(C)C)c2O)c(O)c(C(C)(C)C)c1
target-system: rat primary hepatocytes
units: %
Rat hepatocytes (efficacy) (MMP): −103

Quote Rat hepatocytes (efficacy) (MMP) with test system rat primary hepatocytes for O=C(O)c1cc(O)c2c(c1)C(=O)c1cccc(O)c1C2=O [Rhein] −37.5

====

tested on: HepG2 cells; test: cells; settings: Homo sapiens, HepG2, read-out: MMP assays efficacy (%) HepG2
The reader will find reported Emax values listed item by item below.
Write the answer as a number in %, unit excluded.

Illustrative cases are given below, each with its answer.
molecule: Cc1c(Cl)cccc1Nc1ccccc1C(=O)O [Tolfenamic acid]
endpoint-name: Emax
units: %
reported-result: 98

molecule: Cc1cccc(N)c1N [3-Methylbenzene-1,2-diamine]
endpoint-name: Emax
units: %
reported-result: 90

We now examine a further molecule.
Input O=C(Nc1ccc(Cl)cc1)Nc1ccc(Cl)c(Cl)c1 [Triclocarban] , output reported Emax. 102
